All figures here come from ChEMBL document CHEMBL5550190.

# assay protocol: Protein binding in mouse plasma at 5 uM incubated for 5 hrs by LC-MS/MS analysis
# Format: ADME, cell-free
# measurement context: read-out: PPB
value type: fraction unbound at 5 h, 5 µM

INSERT INTO results (smiles_code, result) VALUES
  ('CCN(CC)C(=O)C[C@H]1C(=O)Nc2cc(NC(=O)c3cc(OC)c(OC)c(OC)c3Br)c(Oc3cc(C)cc(C)c3)cc2C(=O)N1C', '< 0.02');

###

# Tested on: HCT-116
# assay protocol: Antitumor activity against human HCT-116 cells incubated for 48 hrs
# Format: functional
value type: GI50

INSERT INTO measurements (smiles_code, result) VALUES
  ('[2H]C([2H])([2H])Oc1cc(C(=O)Nc2cc3c(cc2Oc2cc(C)cc(C)c2)C(=O)N(C)[C@@H](CC(=O)N(C([2H])([2H])[2H])C([2H])([2H])[2H])C(=O)N3)c(Br)c(OC([2H])([2H])[2H])c1OC([2H])([2H])[2H]', '< 5 nM'),
  ('[2H]C([2H])([2H])Oc1c(OC)cc(C(=O)Nc2cc3c(cc2Oc2cc(C)cc(C)c2)C(=O)N[C@@H](CC(=O)N(CC)CC)C(=O)N3)c(Cl)c1OC', '< 5 nM'),
  ('[2H]C([2H])([2H])Oc1cc(C(=O)Nc2cc3c(cc2Oc2cc(C)cc(C)c2)C(=O)N[C@@H](CC(=O)N(C)O)C(=O)N3)c(Br)c(OC([2H])([2H])[2H])c1OC([2H])([2H])[2H]', '15.6 nM'),
  ('[2H]C([2H])([2H])N(C(=O)C[C@H]1C(=O)Nc2cc(NC(=O)c3cc(OC)c(OC)c(OC)c3Br)c(Oc3cc(C)cc(C)c3)cc2C(=O)N1C)C([2H])([2H])[2H]', '< 5 nM'),
  ('COc1cc(C(=O)Nc2cc3c(cc2Oc2cc(C)cc(C)c2)C(=O)N[C@@H](CC(=O)N(C)C)C(=O)N3)c(Br)c(OC)c1OC', '< 5 nM');

###

# experimental target: CYP3A4 (Homo sapiens, UniProt P08684)
# Sequence (P08684 whole entry): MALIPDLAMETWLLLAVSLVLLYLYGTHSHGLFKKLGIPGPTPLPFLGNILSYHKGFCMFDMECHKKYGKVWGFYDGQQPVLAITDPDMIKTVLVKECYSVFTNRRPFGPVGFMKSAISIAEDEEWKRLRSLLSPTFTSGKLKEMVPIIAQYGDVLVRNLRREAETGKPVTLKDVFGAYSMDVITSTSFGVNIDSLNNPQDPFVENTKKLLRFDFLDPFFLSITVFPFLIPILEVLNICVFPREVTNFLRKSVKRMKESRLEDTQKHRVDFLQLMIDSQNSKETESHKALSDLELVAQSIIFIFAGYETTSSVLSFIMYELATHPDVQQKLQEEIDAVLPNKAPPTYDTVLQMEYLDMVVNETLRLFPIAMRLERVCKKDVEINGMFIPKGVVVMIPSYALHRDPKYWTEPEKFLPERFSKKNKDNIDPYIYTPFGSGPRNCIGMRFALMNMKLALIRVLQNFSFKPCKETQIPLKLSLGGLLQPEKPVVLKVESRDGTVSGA
# assay protocol: Drug metabolism in human liver microsomes assessed as CYP3A4-mediated metabolism by measuring increase in half life in presence of ketoconazole (reference value: 10.8 mins)
# Type: ADME, Microsome
# measurement context: with ketoconazole
value type: half-life

INSERT INTO assay_data (smiles_code, value_type, result) VALUES
  ('CCN(CC)C(=O)C[C@H]1C(=O)Nc2cc(NC(=O)c3cc(OC)c(OC)c(OC)c3Br)c(Oc3cc(C)cc(C)c3)cc2C(=O)N1C', 'half-life', '14.4 h');

###

# experimental target: CYP2C9 (Homo sapiens, UniProt P11712)
# Sequence (P11712 whole entry): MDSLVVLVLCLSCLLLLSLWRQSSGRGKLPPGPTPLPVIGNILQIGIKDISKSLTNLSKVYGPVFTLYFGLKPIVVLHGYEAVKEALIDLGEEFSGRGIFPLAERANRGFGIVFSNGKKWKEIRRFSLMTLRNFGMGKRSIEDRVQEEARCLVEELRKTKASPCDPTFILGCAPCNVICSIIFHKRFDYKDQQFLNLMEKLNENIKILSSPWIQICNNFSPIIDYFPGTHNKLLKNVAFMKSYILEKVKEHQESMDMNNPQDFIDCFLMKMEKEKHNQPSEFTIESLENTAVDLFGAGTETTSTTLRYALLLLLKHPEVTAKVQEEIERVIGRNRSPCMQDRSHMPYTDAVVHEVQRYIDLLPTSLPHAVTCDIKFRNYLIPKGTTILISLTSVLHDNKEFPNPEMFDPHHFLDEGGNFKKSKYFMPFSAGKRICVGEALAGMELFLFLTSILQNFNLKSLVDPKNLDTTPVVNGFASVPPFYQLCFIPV
# assay protocol: Drug metabolism in human liver microsomes assessed as CYP2C9-mediated metabolism by measuring increase in half life in presence of sulfaphenazole (reference value: 10.8 mins)
# Type: ADME, Microsome
# measurement context: with sulfaphenazole
value type: half-life (min)

INSERT INTO assay_data (smiles_code, numeric_result) VALUES
  ('CCN(CC)C(=O)C[C@H]1C(=O)Nc2cc(NC(=O)c3cc(OC)c(OC)c(OC)c3Br)c(Oc3cc(C)cc(C)c3)cc2C(=O)N1C', 16.6);
